I'd be grateful if you could share measured TGI for these entries.
# Tested on: MDA-MB-435
# assayOverview: NCI tumour cell line growth inhibition, 48 h

IN: # return recorded TGI for input O=C(/C=C/c1cc2ccccc2[nH]c1=O)/C=C/c1cc2ccccc2[nH]c1=O
OUT: > 20 µM

IN: # return recorded TGI for input COc1cc2c(c(OC)c1OC)-c1ccc(SC)c(=O)cc1C(NC(=O)c1ccccc1)CC2 (stereo not given)
OUT: < 0.01 µM

IN: # return recorded TGI for input CCc1nn(CN2CCOCC2)c(=S)n1/N=C/c1ccc(-c2ccc(Cl)cc2)o1
OUT: > 100 µM

IN: # return recorded TGI for input O=S1(=O)OCCOS(=O)(=O)C1(F)Br
OUT: > 100 µM

IN: # return recorded TGI for input COc1cc2c(cc1OC)C1C=NC(C2)c2cc(OC)c(OC)cc21 (stereo not given)
OUT: > 100 µM
